For each record, write down the corresponding Percent Effect.
system: Wolbachia pipientis; assay: Anti-Wolbachia Cell-Based Screen; format: functional; set-up: scale not given: in the data most compounds retested in dose-response had high values; settings: 5 µM
The whole screen tested about 48,000 compounds, of which about 13,000 (27%) showed an effect of 50% or more. This is one part of the list.
The figure you give is taken to be in %; do not add the unit.

Req: Specify reported Percent Effect for the compound shown: O=C(CN1CCCNC1=O)N1CCCC(c2nccs2)C1 (stereo unspecified)
Resp: -4.052

Req: Specify reported Percent Effect for the compound shown: CCOCC(O)CN1CCN(C(=O)c2cccc3[nH]ncc23)CC1 (stereo unspecified)
Resp: -8.301

Req: Specify reported Percent Effect for the compound shown: CC(C)c1n[nH]c(C2CN(C(=O)c3cc(C4CC4)on3)CCO2)n1 (stereo unspecified)
Resp: 113.9

Req: Specify reported Percent Effect for the compound shown: O=C1CO[C@@H]2CN(S(=O)(=O)c3ccc(F)cc3)C[C@H]2N1
Resp: 87.78

Req: Specify reported Percent Effect for the compound shown: Cc1nn(C)c(C)c1CN(CCO)C(=O)C1COc2ccccc2C1 (stereo unspecified)
Resp: -4.476

Req: Specify reported Percent Effect for the compound shown: COc1ccc(C2CCCN2Cc2ccc(S(=O)(=O)N(C)C)o2)cc1 (stereo unspecified)
Resp: 151.6

Req: Specify reported Percent Effect for the compound shown: Cc1ccc(N2CCC3(CC2)COCCN(c2nccs2)C3)nn1.O=C(O)C(F)(F)F.O=C(O)C(F)(F)F
Resp: 108.8

Req: Specify reported Percent Effect for the compound shown: O=C(c1cnc(C2CC2)nc1)N1CCCC(c2nccs2)C1 (stereo unspecified)
Resp: 70.5

Req: Specify reported Percent Effect for the compound shown: Cc1ncc2c(n1)CN(CCOCC(F)(F)F)CC2
Resp: -8.792

Req: Specify reported Percent Effect for the compound shown: O=C1CO[C@@H]2CN(S(=O)(=O)c3ccccc3F)C[C@H]2N1
Resp: 96.68

Req: Specify reported Percent Effect for the compound shown: Cc1noc(COCC(=O)N2CCCC(c3nccs3)C2)n1 (stereo unspecified)
Resp: -1.591

Req: Specify reported Percent Effect for the compound shown: CN(C)S(=O)(=O)c1ccc(CN2CCCC2CO)o1 (stereo unspecified)
Resp: -8.26

Req: Specify reported Percent Effect for the compound shown: CC(C)Cc1nc(CCn2ccc(=O)[nH]c2=O)n(-c2ccccn2)n1
Resp: 0.8317

Req: Specify reported Percent Effect for the compound shown: CCOC(=O)N1CCN(c2nc(C)ncc2CC)CC1
Resp: -1.601

Req: Specify reported Percent Effect for the compound shown: CC(C)Oc1ncc(C(=O)N2CCCC(C(=O)O)C2)cc1Cl (stereo unspecified)
Resp: -16.5

Req: Specify reported Percent Effect for the compound shown: O=C(C1CC(=O)N(C2CC2)C1)N1CCN(CCn2cccc2)CC1 (stereo unspecified)
Resp: -24.19

Req: Specify reported Percent Effect for the compound shown: Cc1ccc(N2CC3(CCN(c4nccs4)C3)C2)nn1
Resp: -7.178

Req: Specify reported Percent Effect for the compound shown: Cc1n[nH]c(C2CN(C(=O)c3csnn3)CCO2)n1 (stereo unspecified)
Resp: -23.45

Req: Specify reported Percent Effect for the compound shown: CN(CCC#N)C(=O)CN1CCCC1c1ccsc1 (stereo unspecified)
Resp: 1.248

Req: Specify reported Percent Effect for the compound shown: O=C(c1cnc(O)c(Cl)c1)N1CCCC(c2nccs2)C1 (stereo unspecified)
Resp: 105

Req: Specify reported Percent Effect for the compound shown: CCOCC(O)CN1CCN(C(=O)c2ccccc2F)CC1 (stereo unspecified)
Resp: 82.64

Req: Specify reported Percent Effect for the compound shown: CCOCC(O)CN1CCN(C(=O)c2cc(C)ccc2OC)CC1 (stereo unspecified)
Resp: 91.25

Req: Specify reported Percent Effect for the compound shown: Cc1ccc(N2CCCC3(COCCN(c4ncccn4)C3)C2)nn1.O=C(O)C(F)(F)F (stereo unspecified)
Resp: 82.98

Req: Specify reported Percent Effect for the compound shown: CCOCC(=O)N1CCOCC2(CCN(c3ncccn3)C2)C1.O=C(O)C(F)(F)F (stereo unspecified)
Resp: 115.1

Req: Specify reported Percent Effect for the compound shown: CCOCC(O)CN1CCN(C(=O)c2cccnc2OC)CC1 (stereo unspecified)
Resp: -8.967

Req: Specify reported Percent Effect for the compound shown: CC(C)c1n[nH]c(C2CN(Cc3nnc(C4CC4)o3)CCO2)n1 (stereo unspecified)
Resp: -9.108

Req: Specify reported Percent Effect for the compound shown: CCOCC(O)CN1CCN(C(=O)c2cc(F)ccc2C)CC1 (stereo unspecified)
Resp: -5.879

Req: Specify reported Percent Effect for the compound shown: O=C(CCn1ccnc1)N1CC[C@@H](c2ccc3ccccc3c2)[C@H](O)C1
Resp: 3.256

Req: Specify reported Percent Effect for the compound shown: CN(Cc1ccco1)C(=O)CN1CCCC1c1cccs1 (stereo unspecified)
Resp: -12.25

Req: Specify reported Percent Effect for the compound shown: c1cnn(CCNCc2csc(-c3ccsc3)n2)c1
Resp: 8.023

Req: Specify reported Percent Effect for the compound shown: CC(C)c1n[nH]c(C2CN(C(=O)c3csnn3)CCO2)n1 (stereo unspecified)
Resp: 4.906

Req: Specify reported Percent Effect for the compound shown: Cc1cc(NC(=O)CN2CCc3cnc(C)nc3C2)on1
Resp: -3.742

Req: Specify reported Percent Effect for the compound shown: CN(C)S(=O)(=O)c1ccc(CN2CCCC2c2ccsc2)o1 (stereo unspecified)
Resp: 153.1

Req: Specify reported Percent Effect for the compound shown: CCn1cc(C(=O)N2CCCC(c3nccs3)C2)cn1 (stereo unspecified)
Resp: 107.1

Req: Specify reported Percent Effect for the compound shown: O=C(O)C(F)(F)F.O=C(O)C(F)(F)F.c1cnc(N2CCOCC3(CCCN(CC4CCOCC4)C3)C2)nc1 (stereo unspecified)
Resp: -3.791

Req: Specify reported Percent Effect for the compound shown: OC1(CN2CCCC2)COCCN(c2nnc(-c3ccccc3)s2)C1 (stereo unspecified)
Resp: -13.1

Req: Specify reported Percent Effect for the compound shown: CN(C)S(=O)(=O)c1ccc(CN2CCCC2c2ccccc2)o1 (stereo unspecified)
Resp: 8.974

Req: Specify reported Percent Effect for the compound shown: CCOCC(=O)N1CC[C@H]2OCC[C@@]2(COc2ncccc2F)C1.O=C(O)C(F)(F)F
Resp: -3.289

Req: Specify reported Percent Effect for the compound shown: Cc1n[nH]c(C2CN(C(=O)c3cc(C4CC4)on3)CCO2)n1 (stereo unspecified)
Resp: 119.9

Req: Specify reported Percent Effect for the compound shown: CCOC(=O)NC(=O)CSC(C)c1ccccc1F (stereo unspecified)
Resp: 4.048

Req: Specify reported Percent Effect for the compound shown: CCOCC(O)CN1CCN(C(=O)c2cc(Cl)ccc2F)CC1 (stereo unspecified)
Resp: 107.8

Req: Specify reported Percent Effect for the compound shown: O=C(Cc1ccc2c(c1)OCO2)N1CCCN(c2nccs2)CC1
Resp: -6.237

Req: Specify reported Percent Effect for the compound shown: CC(C)NC(=O)CN(C)CC(=O)/N=c1/cc[nH]n1C(C)C1CC1 (stereo unspecified)
Resp: -11.27

Req: Specify reported Percent Effect for the compound shown: Cc1ccoc1C(=O)N1CCOCC2(CCN(c3ncccn3)C2)C1.O=C(O)C(F)(F)F (stereo unspecified)
Resp: 0.2458

Req: Specify reported Percent Effect for the compound shown: c1cnn(CC2CCCCN2Cc2cn3ccsc3n2)c1 (stereo unspecified)
Resp: 2.763

Req: Specify reported Percent Effect for the compound shown: O=C1O[C@@H]2CN(c3cnccn3)C[C@@H]2N1CCCc1ccc(F)cc1
Resp: 20.37

---

tested on: Wolbachia pipientis; experiment: Anti-Wolbachia Cell-Based Screen; type: functional; design: scale not given: in the data most compounds retested in dose-response had high values; conditions: 5 µM
In all, about 48,000 compounds went through this assay and about 13,000 (27%) showed an effect of 50% or more. This is one part of the list.
For each record, write down the corresponding Percent Effect.
The figure you give is taken to be in %; do not add the unit.

Req: Specify reported Percent Effect for the compound shown: N[C@@H](Cc1c[nH]cn1)C(=O)N1CCC(Oc2ccc(F)cc2)CC1
Resp: 142.9

Req: Specify reported Percent Effect for the compound shown: CC(=O)Nc1cccc(C(=O)N(C)C(C)Cc2cc(C)ccn2)c1 (stereo unspecified)
Resp: 4.881

Req: Specify reported Percent Effect for the compound shown: CC(C)CN(C(=O)Nc1cccc(C(=O)N(C)C)c1)C1CC1
Resp: 4.006

Req: Specify reported Percent Effect for the compound shown: CN(CC(=O)N1CCCC1)C(=O)c1ccccc1Nc1ccccc1
Resp: -0.554

Req: Specify reported Percent Effect for the compound shown: CN(C(=O)c1ccccc1NCC(=O)O)C(C1CC1)C1CC1
Resp: 114.3

Req: Specify reported Percent Effect for the compound shown: COc1ccc(OC2CCN(C(=O)c3cnc(C)s3)CC2)cc1
Resp: -7.331

Req: Specify reported Percent Effect for the compound shown: CCn1nc(C)c(CCNC(=O)c2cccc(NCC(=O)O)c2)c1C
Resp: -5.115

Req: Specify reported Percent Effect for the compound shown: Cc1cc(CNc2cccc(C(=O)N(C)c3ccccc3)c2)no1
Resp: 2.006

Req: Specify reported Percent Effect for the compound shown: CC(C)N(CC(=O)Nc1cccc(C(=O)N(C)C)c1)C1CC1
Resp: 5.845

Req: Specify reported Percent Effect for the compound shown: O=C(NCC(F)(F)F)C(c1cccnc1)N1CCOCC1 (stereo unspecified)
Resp: -10.65

Req: Specify reported Percent Effect for the compound shown: CN(C(=O)c1cccc(NCC(=O)O)c1)C(C1CC1)C1CC1
Resp: 109.4
